Test system: SW480 cells
Experiment: MTT cell viability assay in SW480 cells
Type: cell-based
Settings: Homo sapiens, SW480, 72 h, read-out: IC50 SW480
Parameter: IC50 (µM)
Respond with the bare value in µM.

[Q] Reported IC50, molecule CC(=O)Oc1c(C(C)C)cc2c(c1OC(C)=O)[C@@]1(NC(=O)OCC(C)C)CCCC(C)(C)[C@@H]1CC2 [Compound 17] : ____
[A] 6.3

---

System: Mia Paca-2 cells
Assay: MTT cell viability assay in Mia Paca-2 cells
Assay type: cell-based
Conditions: Homo sapiens, MIA PaCa-2; MTT assay, 72 h incubation, mean ± SD; read-out: IC50 Mia Paca-2
Assign IC50 to each entry below.
Respond with the bare value in µM.

[Q] Reported IC50, molecule CC(C)c1cc2c(c(O)c1O)[C@@]1(C(=O)O)CCCC(C)(C)[C@@H]1CC2 : ____
[A] 21

[Q] Reported IC50, molecule CCCCOC(=O)[C@]12CCCC(C)(C)[C@@H]1CC(=O)c1cc(C(C)C)c(OC(C)=O)c(OC(C)=O)c12 : ____
[A] 12

---

Test system: SW620 cells
Test: MTT cell viability assay in SW620 cells
Type: cell-based
Settings: Homo sapiens, SW-620, 72 h, read-out: IC50 SW620
Parameter: IC50 (µM)
Respond with the bare value in µM.

[Q] Reported IC50, compound CC(=O)Oc1c(C(C)C)cc2c(c1OC(C)=O)[C@@]1(NC(=O)OCC(C)C)CCCC(C)(C)[C@@H]1CC2 [Compound 17] : ____
[A] 10

---

Test system: Mia Paca-2 cells
Assay: MTT cell viability assay in Mia Paca-2 cells
Format: cell-based
Settings: Homo sapiens, MIA PaCa-2, 72 h, read-out: IC50 Mia Paca-2
Parameter: pIC50
Remember the convention: pIC50 equals -log10 of concentration in molar.

[Q] Reported pIC50, molecule CC(=O)Oc1c(C(C)C)cc2c(c1OC(C)=O)[C@@]1(NC(=O)OCC(C)C)CCCC(C)(C)[C@@H]1CC2 [Compound 17] : ____
[A] 5.12

From: paper PMC12498136
